Catalogue of TGI readings, one per entry.
Test system: OVCAR-8 ovarian
Assay: NCI tumour cell line growth inhibition, 48 h

{"compound": "CCN(CCCl)c1cc(CN(C)C)cc(NC(=O)c2cc(C(=O)Nc3cc(CN(C)C)cc(N(CC)CCCl)c3)n(C)n2)c1", "TGI": "1.13 µM"}
{"compound": "O=C(c1ccccc1)c1ccc2nc3n(c2c1)C(c1c(Cl)cccc1Cl)SC3 (stereo not given)", "TGI": "> 55.5 µM"}
{"compound": "Nc1ncnc2c1N=C(c1ccccc1)CC(c1ccccc1)N2 (stereo not given)", "TGI": "> 100 µM"}
{"compound": "CC(C)=CC(=O)CC(=O)C(=O)NCCNC(=O)C(=O)CC(=O)C=C(C)C", "TGI": "> 50 µM"}
{"compound": "NNC(=O)N/N=C1\\CNC(=O)C(=O)C1c1nc2ccccc2s1 (stereo not given)", "TGI": "> 100 µM"}
{"compound": "Nc1ncnc2c1ncn2CCOC(c1ccccc1)P(=O)(O)O (stereo not given)", "TGI": "> 100 µM"}
{"compound": "CCc1ccc(C2=NN(c3ccc(S(C)(=O)=O)cc3)C(=O)CC2)cc1", "TGI": "> 81.8 µM"}
{"compound": "Nc1ncnc2sc(Nc3ccccc3)nc12", "TGI": "> 100 µM"}
{"compound": "CC(N)=O.[Cl][Pt][Cl].[NH-]c1ccn(C2OC(CO)C(O)C2O)c(=O)n1 (stereo not given)", "TGI": "> 100 µM"}
{"compound": "CCN(CCNc1ccc(C)c2sc3cc(Cl)ccc3c(=O)c12)CC(C)(C)O", "TGI": "> 100 µM"}
